- study.system: Cdh1 WD40 domain (yeast) (Saccharomyces cerevisiae, UniProt P53197)
- Construct: the WD40 domains of yeast Cdh1 (aa 241–550; pNH144); 2xStrep-Tag II (N); made in house; host or cells: Sf9 insect cells (baculovirus)
- Sequence (P53197 241-550): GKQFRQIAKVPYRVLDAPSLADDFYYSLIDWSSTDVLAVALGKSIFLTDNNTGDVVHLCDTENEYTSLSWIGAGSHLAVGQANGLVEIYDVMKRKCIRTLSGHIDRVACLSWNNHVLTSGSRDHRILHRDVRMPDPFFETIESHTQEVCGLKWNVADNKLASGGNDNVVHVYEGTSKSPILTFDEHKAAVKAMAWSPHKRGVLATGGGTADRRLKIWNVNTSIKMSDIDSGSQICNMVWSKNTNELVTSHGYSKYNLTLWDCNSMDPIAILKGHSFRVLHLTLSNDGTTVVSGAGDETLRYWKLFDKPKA
- test: Fluorescence anisotropy, 10 nM Cy5-labeled degron peptide, yeast Cdh1 WD40
- Assay type: binding
- settings: replicate 2021-11-15; source data of Fig. 1a (there μM); read-out: Kd

substance | Kd
EQKPKRAALSDITNSFNKMN-K(Cy5) [Hsl1 D box and dark KEN mutant, Cy5 Hsl1 D box peptide (10 nM) in presence of unlabeled mutated Hsl1 KEN (100 µM)] | 3.56 µM
